Measured values drawn from PubChem BioAssay (NCI) for this set.

Test system: TK-10 renal
test-summary: NCI-60 one-dose screen, 48 h (100 = growth as untreated, 0 = no growth, -100 = all killed)
condition: 10 µM unless noted
This is part of a sample that, as a whole, favours compounds with a hit. Of some 83,000 tested, about 20% had one in any assay.
Here the recorded growth is given for each entry.
Numbers only; they are read as %.

- compound: "c1cc2c(ccc3[nH]c(-c4ccc5[nH]ncc5c4)c4c(c32)CCCC4)n1"
  growth (%): 80.2
- compound: "O=C(CSc1nc2ccc([N+](=O)[O-])cc2[nH]1)Nc1ccc([N+](=O)[O-])cc1"
  growth (%): 31.8

Exercise: # get_value(readout='growth', item= CN(C)CC1CCC(CN(C)C)C1=O (stereo not given) )
Solution: 92.1

Exercise: # get_value(readout='growth', item= COc1cc(C2CC(c3ccc(Nc4nc(Nc5ccc(Cl)cc5)nc(Nc5ccc(Cl)cc5)n4)cc3)=NN2C(C)=O)cc(OC)c1OC (stereo not given) )
Solution: 118

Exercise: # get_value(readout='growth', item= "O=S(=O)(Nc1cc(Cl)ccc1Cl)c1ccc(-c2cnc(C3CC3)o2)cc1" )
Solution: 60

====

Tested on: NCI-H322M lung
test-summary: NCI-60 one-dose screen, 48 h (100 = growth as untreated, 0 = no growth, -100 = all killed)
condition: 10 µM unless noted
This is part of a sample that, as a whole, favours compounds with a hit. Of some 83,000 tested, about 20% had one in any assay. Calls of active or inactive are those of the source. How the source made its calls: active means growth percent below 10; inactive means the rest.
Here the recorded growth is given for each entry.

- compound: "N#CC1=C(N)Oc2c(c(=O)[nH]c3ccc(Cl)cc23)C12C(=O)c1ccccc1C2=O"
  growth: "93% (inactive)"

Exercise: # get_value(readout='growth', item= "COc1cc2ncnc(Nc3ccc(F)c(Cl)c3)c2cc1OCC(=O)N1CCN(c2ccccc2)CC1" )
Solution: 34% (inactive)

Exercise: # get_value(readout='growth', item= "C=CC(=O)N1CCN(c2cccc(Oc3nccc(Nc4nnc(-c5ccc(Br)cc5)s4)n3)c2)CC1" )
Solution: 92.3% (inactive)

Exercise: # get_value(readout='growth', item= Cc1cc(C)c2c(c1)N(C)c1ncnc(-n3cnc4cc(C)ccc43)c1CC2C (centres undefined) )
Solution: 48.5% (inactive)

====

Tested on: OVCAR-5 ovarian
test-summary: NCI-60 one-dose screen, 48 h (100 = growth as untreated, 0 = no growth, -100 = all killed)
condition: 10 µM unless noted
About 83,000 compounds went through this panel and 20% of them were active in at least one assay; those are over-represented in the sample as a whole. Active and inactive are the calls of the source. The calls were made as follows: active = growth percent below 10; inactive = the rest.
Here the recorded growth is given for each entry.

Examples with their reported growth follow.
- compound: "CCN1CCN(C(=O)[C@]23CCC(C)(C)C[C@@H]2C2=CC[C@@H]4[C@@]5(C)CCC(=O)C(C)(C)[C@@H]5CC[C@@]4(C)[C@]2(C)CC3)CC1"
  reported-property: "growth"
  result: "72.2% (inactive)"
- compound: "Nc1ncnc2c1C(c1ccc(Br)cc1)c1sc3c(F)cccc3c1O2 (stereo unspecified)"
  reported-property: "growth"
  result: "99.8% (inactive)"
- compound: "CCCCCCCCCc1ccc(OCCOCCOCCOCCOCCOCCOCCOCCOCCO)cc1"
  reported-property: "growth"
  result: "48.3% (inactive)"
- compound: "CC1OC(n2c3ccccc3c3c4c(c5c6ccccc6[nH]c5c32)C(=O)N(CCN2CCCC2)C4=O)CC(O)C1O (stereo unspecified)"
  reported-property: "growth"
  result: "78.1% (inactive)"
- compound: "Cc1ccc(NC(=O)Cn2cc(CN3CCN(c4ccnc5cc(Cl)ccc45)CC3)nn2)cc1"
  reported-property: "growth"
  result: "95.5% (inactive)"
- compound: "NC(Cc1ccc(O)c([N+](=O)[O-])c1)C(=O)O (stereo unspecified)"
  reported-property: "growth"
  result: "107% (inactive)"
- compound: "C1CN(SSN2CCOCC2)CCO1"
  reported-property: "growth"
  result: "35.8% [100 µM] (inactive)"
- compound: "CC(=O)Oc1ccc(/C(=C(\\C)c2ccc(Cl)cc2)c2ccc(OCCN3CCCCC3)cc2)cc1"
  reported-property: "growth"
  result: "75.1% (inactive)"
- compound: "O=c1[nH]c(Cc2nc3ccccc3s2)nc2cc(Br)ccc12"
  reported-property: "growth"
  result: "66.5% (inactive)"
- compound: "Nc1n[nH]c2cccc(C#Cc3cccc(C(=O)Nc4cc(C(F)(F)F)cc(C(F)(F)F)c4)c3)c12"
  reported-property: "growth"
  result: "75.9% (inactive)"

# input for lookup
Exercise: Give growth (OVCAR-5 ovarian) of the following compound: "COc1ccc(-c2cc(-c3ccc(Cl)cc3)c(C#N)c(=O)n2Cc2ccc(C(=O)Nc3ccccc3N)cc2)cc1"
Solution: 96.7% (inactive)
